Test system: S. aureus ATCC 43300
ASSAY PROCEDURE: Antibacterial assay (MIC, broth dilution)
Type: cell-based
CONDITION CONTEXT: Staphylococcus aureus, ATCC43300; 18 h, 37 °C; read-out: S. aureus MIC
In this section we review reported MIC values for a set of compounds.
MEASURED PARAMETER: MIC

N=C(N)c1ccc(OCCCCCOc2ccc(C(=N)N)cc2)cc1 ... 50 µM
COc1cccc(/C=C/c2ccc(C(=O)Nc3cc(C(=O)Nc4cc(C(=O)NCC[N+]5([O-])CCOCC5)n(C)c4)n(C)c3)cc2)c1 ... > 100 µM
N=C(N)c1ccc(-c2cc3ccc(C(=N)N)cc3[nH]2)cc1 ... 3.12 µM
COc1ccc(/C=C/c2ccc(C(=O)Nc3cc(C(=O)Nc4cc(C(=O)NCC[N+]5([O-])CCOCC5)n(C)c4)n(C)c3)cn2)cc1 ... > 100 µM

* * *

Test system: d(5′-CGCATATATGCG-3′)
ASSAY PROCEDURE: UV-Vis DNA thermal melting, short DNA oligo
Assay type: binding
CONDITION CONTEXT: 2 MGB: 1 DNA, 10 mM PBS pH 7.4, 50 mM NaCl
MEASURED PARAMETER: ΔTm, DNA melting temperature increase (°C)

COc1cccc(/C=C/c2ccc(C(=O)Nc3cc(C(=O)Nc4cc(C(=O)NCC[N+]5([O-])CCOCC5)n(C)c4)n(C)c3)cc2)c1 [compound 206] ... 1
N=C(N)c1ccc(-c2cc3ccc(C(=N)N)cc3[nH]2)cc1 [compound 2] ... 15
N=C(N)c1ccc(OCCCCCOc2ccc(C(=N)N)cc2)cc1 [compound 1] ... 11
Cn1cc(NC(=O)c2cc(NC(=O)c3cc(NC=O)cn3C)cn2C)cc1C(=O)NCCC(=N)N [compound 3] ... 17
COc1ccc(/C=C/c2ccc(C(=O)Nc3cc(C(=O)Nc4cc(C(=O)NCC[N+]5([O-])CCOCC5)n(C)c4)n(C)c3)cn2)cc1 [compound 207] ... 1
